The entries below come with measured killing at 3 % values attached.
system: ascarid ovi; experiment: animal or person; format: in vivo, pig.ascarid; conditions: 24 h, read-out: Death of ascarid ovi, % after 24 hrs
metric: killing at 3 % (%)

compound="COP(=O)(NC(CCl)C(O)c1ccc([N+](=O)[O-])cc1)OC (centres unmarked)" metric="killing at 3 %" recorded_value=100
compound="CCOP(=O)(NC(CCl)C(O)c1ccc([N+](=O)[O-])cc1)OCC (centres unmarked)" metric="killing at 3 %" recorded_value=100
compound="COP(=O)(NC(CCl)C(Cl)c1ccc([N+](=O)[O-])cc1)OC (centres unmarked)" metric="killing at 3 %" recorded_value=100
compound="CNC(=S)S [Known ovocidal preparation (carbathion), sodium N-methyldithiocarbamate dihydrate, reference compound]" metric="killing at 3 %" recorded_value=100
compound="CCOP(=O)(NC(CCl)C(Cl)c1ccc([N+](=O)[O-])cc1)OCC (centres unmarked)" metric="killing at 3 %" recorded_value=100

Provenance of the data: patent EP0404945A1
